From: patent US7560468B2

target: 5-HT transporter (Rattus norvegicus, UniProt P31652); construct: from tissue; host or cells: rat brain synaptosomes (marrow/medulla and pons), P2 fraction; assay: Inhibition of 5-HT uptake in synaptosomes; format: biochemical; conditions: read-out: Uptake_5-HT, rat, 1 μM, % inhibition
Sequence (P31652 whole entry): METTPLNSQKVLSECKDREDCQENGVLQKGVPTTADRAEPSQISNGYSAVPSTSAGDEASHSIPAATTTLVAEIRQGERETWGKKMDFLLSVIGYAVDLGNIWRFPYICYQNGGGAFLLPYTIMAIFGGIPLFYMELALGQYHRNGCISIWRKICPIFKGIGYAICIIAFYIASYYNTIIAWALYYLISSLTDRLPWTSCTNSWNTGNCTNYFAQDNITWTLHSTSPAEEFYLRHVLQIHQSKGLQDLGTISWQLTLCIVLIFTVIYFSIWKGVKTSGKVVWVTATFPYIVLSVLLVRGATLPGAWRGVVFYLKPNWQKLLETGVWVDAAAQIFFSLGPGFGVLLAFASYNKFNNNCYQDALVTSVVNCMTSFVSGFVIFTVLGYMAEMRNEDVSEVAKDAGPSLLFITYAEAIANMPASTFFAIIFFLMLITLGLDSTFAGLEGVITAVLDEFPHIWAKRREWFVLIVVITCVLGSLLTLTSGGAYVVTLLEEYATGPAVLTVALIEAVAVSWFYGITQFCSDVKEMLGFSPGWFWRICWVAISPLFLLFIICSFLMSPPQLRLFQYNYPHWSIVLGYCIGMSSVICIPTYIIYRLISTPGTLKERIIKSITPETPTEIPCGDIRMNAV
Label T when inhibition at 1 µM is at or above 40%; anything below gets F.

[
  {
    "molecule": "CSCCC1NC2(CCN(C(=S)NC(C)C)CC2)N(Cc2ccc(F)cc2)C1=O (stereo not shown)",
    "system": "5-HT transporter (Rattus norvegicus, UniProt P31652)",
    "answer label": "F"
  },
  {
    "molecule": "CSCCC1NC2(CCN(S(=O)(=O)N(C)C)CC2)N(Cc2ccc3ccccc3c2)C1=O (stereo not shown)",
    "system": "5-HT transporter (Rattus norvegicus, UniProt P31652)",
    "answer label": "T"
  },
  {
    "molecule": "CCCCN1C(=O)C(CCSC)NC12CCN(C(=O)NCc1ccc(Cl)c(Cl)c1)CC2 (stereo not shown)",
    "system": "5-HT transporter (Rattus norvegicus, UniProt P31652)",
    "answer label": "F"
  },
  {
    "molecule": "O=C1C(Cc2ccccc2)NC2(CCN(S(=O)(=O)c3cc(Cl)sc3Cl)CC2)N1Cc1ccccc1 (stereo not shown)",
    "system": "5-HT transporter (Rattus norvegicus, UniProt P31652)",
    "answer label": "T"
  }
]

Request: Would you say CCOC(=O)c1ccc(NC(=O)N2CCC3(CC2)NC(Cc2ccccc2)C(=O)N3Cc2ccccc2F)cc1 (stereo not shown) shows inhibition at 1 µM at minimum 40%?
Response: T

Request: Would you say CCOC(=O)CN1C(=O)C(Cc2ccccc2)NC12CCN(C(=S)NCC1CCCCC1)CC2 (stereo not shown) shows inhibition at 1 µM at minimum 40%?
Response: F

Request: Would you say CCCCN1C(=O)C(CCSC)NC12CCN(S(=O)(=O)c1ccc(Cl)s1)CC2 (stereo not shown) shows inhibition at 1 µM at minimum 40%?
Response: T

Request: Would you say CN1C(=O)C(Cc2ccccc2)NC12CCN(C(=O)NC1CCCCC1)CC2 (stereo not shown) shows inhibition at 1 µM at minimum 40%?
Response: F

Request: Would you say CCS(=O)(=O)N1CCC2(CC1)NC(CCSC)C(=O)N2Cc1ccccc1 (stereo not shown) shows inhibition at 1 µM at minimum 40%?
Response: T

Request: Would you say Cc1cccc(NC(=S)N2CCC3(CC2)NC(Cc2ccccc2)C(=O)N3Cc2ccccc2F)c1 (stereo not shown) shows inhibition at 1 µM at minimum 40%?
Response: T

Request: Would you say CCOC(=O)CN1C(=O)C(Cc2ccccc2)NC12CCN(S(=O)(=O)c1ccc(Cl)s1)CC2 (stereo not shown) shows inhibition at 1 µM at minimum 40%?
Response: T

Request: Would you say CC(C)C1NC2(CCN(S(=O)(=O)c3ccc4c(c3)CN(C(=O)C(F)(F)F)CC4)CC2)N(Cc2cccc(C#N)c2)C1=O (stereo not shown) shows inhibition at 1 µM at minimum 40%?
Response: F

Request: Would you say CCCCN1C(=O)C(C(C)C)NC12CCN(S(=O)(=O)c1ccccc1C(=O)OC)CC2 (stereo not shown) shows inhibition at 1 µM at minimum 40%?
Response: T

Request: Would you say CCCCN1C(=O)C(C(C)C)NC12CCN(C(=O)Nc1cccc(C(=O)OCC)c1)CC2 (stereo not shown) shows inhibition at 1 µM at minimum 40%?
Response: F
